Subject Of Test: T1, CHC 1–574 R481E (UniProt Q00610 1-574, R481E)
T1 construct: source: expressed and purified as the WT protein (modified pGEX vector; GST cleaved with TEV)
T1 sequence (looked up): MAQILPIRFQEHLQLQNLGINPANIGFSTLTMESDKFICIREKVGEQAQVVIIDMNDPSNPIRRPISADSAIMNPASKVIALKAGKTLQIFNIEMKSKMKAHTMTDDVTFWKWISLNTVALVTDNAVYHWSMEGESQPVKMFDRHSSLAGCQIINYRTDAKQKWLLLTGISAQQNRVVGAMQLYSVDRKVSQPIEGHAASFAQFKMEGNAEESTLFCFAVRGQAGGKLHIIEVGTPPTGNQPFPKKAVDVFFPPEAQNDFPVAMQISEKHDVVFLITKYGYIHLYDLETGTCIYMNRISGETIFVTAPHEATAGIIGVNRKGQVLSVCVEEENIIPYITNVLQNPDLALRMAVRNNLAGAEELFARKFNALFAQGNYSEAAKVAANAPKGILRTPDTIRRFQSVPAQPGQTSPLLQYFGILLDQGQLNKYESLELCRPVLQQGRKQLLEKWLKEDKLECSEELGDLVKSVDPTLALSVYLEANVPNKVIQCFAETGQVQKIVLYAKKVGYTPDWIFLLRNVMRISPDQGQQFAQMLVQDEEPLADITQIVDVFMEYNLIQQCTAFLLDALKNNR
Test Protocol: fluorescence polarisation; CHC proteins serially diluted in 20 mM HEPES–NaOH pH 7.5, 200 mM NaCl, 5 mM DTT; 50 nM FAM‐labelled TACC3 peptide; 30 min at room temperature; read at 25°C
Condition Summary: both partners purified
Non-standard residues stand in square brackets, D forms with d. No end group written: not given here. pS = N[C@@H](COP(=O)(O)O)C(=O)O; FAM = fluorescein label
Endpoint: Kd

stdin: Query (binder): {FAM}-FKESALRKQ[pS]LYLKFDPLLRDS (peptide, UniProt Q9Y6A5 549-570, looked up, TACC3, human, aa549–570 (TACC3^CID); also called pTACC3^CID; FAM‐labelled pTACC3^CID; source: FAM‐labelled peptide (FAM‐TACC3 peptides: PPR, Cambridge; Almac, Craigavon)) [FAM‐TACC3 549–570 phosphorylated on S558 (FAM‐phospho‐TACC3^CID)] ; field requested: Kd
stdout: > 300 µM
